- tested-system: T1, Mouse Id1: Histidine (mouse, UniProt P20067-2 1-148, limits assumed)
- T1 construct: Fusion protein made in E. coli from vector pGW07; also called m-Id1-His; not shown: His tag
- T1 sequence (looked up): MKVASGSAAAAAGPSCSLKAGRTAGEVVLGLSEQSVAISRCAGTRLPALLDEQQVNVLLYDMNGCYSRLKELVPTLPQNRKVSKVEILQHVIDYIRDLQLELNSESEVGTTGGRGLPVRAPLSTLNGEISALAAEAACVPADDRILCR
- procedure-text: ELISA, Ab 0.500 µg/ml
outcome-measure: A450 (A450)

binder: rabbit monoclonal anti-mouse/human Id3, clone #BCH-4/#42-1 (antibody, V domains shown, Rabbit IgG from a rabbit hybridoma; also called m/h Id3 MoAb 42-1) VH: QSVEESGGRLVTPGTPLTLTCTASGFSLSSYYIHWVRQAPGKALEWIGYISDGGTTYYASWAKGRFTISKTSSTTVDLKMTSLTTEDTATYFCARQGFNIWGPGTLVTVSL VL: AVLTQTPSPVSAAVGGTVTISCQSSQSVYNNNWLSWFQQKSGQPPKLLIYETSKLESGVPSRFKGSGSGTQFTLTIIDVQCDDAATYYCLGGYWSTSDNNIFGGGTEVVVK
unit-of-measurement: A450
endpoint-result: 0.053
//
binder: rabbit monoclonal anti-mouse/human Id3, clone #BCH-4/#6-1 (antibody, V domains shown, Rabbit IgG from a rabbit hybridoma; also called m/h Id3 MoAb 6-1) VH: QSVEESGGRLVTPGTPLTLTCTASGFSLSNVYIHWVRQAPGKGLEWIGYISDGDTARYATWAKGRFTISKTSSTTVNLKMTSLTTEDTATYFCARQGFNIWGPGTLVTVSL VL: AVLTQTPSPVSAAVGGTVSISCQSSQSVWNNNWLSWFQQKPGQPPKLLIYETSKLESGVPSRFKGSGSGTQFTLTISDVQCDDAATYYCLGGYWTTSDNNVFGGGTEVVVK
unit-of-measurement: A450
endpoint-result: 0.051
